Tested on: DU-145 prostate
Assay: NCI-60 one-dose screen, 48 h (100 = growth as untreated, 0 = no growth, -100 = all killed)
Settings: 10 µM unless noted
About 83,000 compounds went through this panel and 20% of them were active in at least one assay; those are over-represented in the sample as a whole.
// returns -1 unless growth is strictly below 10%, in which case 1

* CC(=O)O[C@H]1CC[C@]2(C)[C@H]3CC[C@]4(C)[C@@H](OC(C)=O)CC[C@H]4[C@@H]3[C@@H](C)[C@]2(O)C1 | -1
* O=C1C(N2CC2)=C(N2CC2)C(=O)C(N2CC2)=C1N1CC1 | 1
* COc1cc(NCCCN=C(N)N)c2ncccc2c1 | -1
* C=C1C[C@](OC)([C@H](O)C(=O)N[C@@H](OC)[C@@H]2C[C@@H](O)C(C)(C)[C@@H](C[C@@H](COC)OC)O2)O[C@H](C)[C@@H]1C | 1
* CN(C)C(=O)Oc1ccc(Br)cc1 | -1
* CC[C@H](C)[C@@H]([C@@H](CC(=O)N1CCC[C@H]1[C@H](OC)[C@@H](C)C(=O)N[C@H](C)[C@@H](O)c1ccccc1)OC)N(C)C(=O)[C@@H](NC(=O)[C@@H](NC)C(C)C)C(C)C | -1
* CC(C)=CCC/C(C)=C/C=N\N=C(/N)N[N+](=O)[O-] | -1
* COC(=O)CCC1=C(C)c2cc3[n-]c(cc4nc(cc5[n-]c(cc1n2)c(CCC(=O)OC)c5C)C=C4C)cc3C.[Cd+2] | 1
* CC(=O)O[C@H](C[C@H](C(C)C)N(C)C(=O)[C@@H](NC(=O)[C@H]1CCCCN1C)C(C)C)c1cccc(C(=O)N[C@@H](Cc2ccccc2)C[C@H](C)C(=O)O)n1 | 1
* c1cnc2[nH]cc(-c3csc(-c4cn(CCCCN5CCCCC5)c5ccccc45)n3)c2c1 | -1

Request: Strictly below 10%: is that where growth of N/C(=N/N=C/c1ccncc1)N[N+](=O)[O-] sits?
Response: -1

Request: Strictly below 10%: is that where growth of CCOC(=O)N[C@H]1CCc2c(Br)c(OC)c(OC)c(OC)c2-c2ccc(SC)c(=O)cc21 sits?
Response: 1

Request: Strictly below 10%: is that where growth of CCOc1ccccc1C(=O)OCC(Cl)(Cl)Cl sits?
Response: -1

Request: Strictly below 10%: is that where growth of CCOC(=O)[C@@H](C)C[C@H](Cc1ccccc1)NC(=O)c1csc([C@@H](C[C@H](C(C)C)N(C)C(=O)[C@H](CC)NC(=O)[C@H]2CCCCN2C)OC(C)=O)n1 sits?
Response: 1

Request: Strictly below 10%: is that where growth of OCc1ccc2c(c1)OCO2 sits?
Response: -1

Request: Strictly below 10%: is that where growth of OCCCCCNC1CCCCC1 sits?
Response: -1

Request: Strictly below 10%: is that where growth of [Cl][Hg][n]1c(-c2ccco2)nc2ccccc21 sits?
Response: -1

Request: Strictly below 10%: is that where growth of CC(=O)[O][Hg][O]C(C)=O sits?
Response: -1

Request: Strictly below 10%: is that where growth of O=C([O][Hg][CH2]C1OCCOC1[CH2][Hg][O]C(=O)c1ccccc1)c1ccccc1 (centres undefined) sits?
Response: -1
